// provenance: ChEMBL document CHEMBL2021854

# System: Human respirovirus 3
# assay details: Antiviral activity against Parainfluenza-3 virus infected in african green monkey Vero cells assessed as inhibition of virus-induced cytopathogenicity after 4 days
# Assay type: functional, organism-based
# assay context: Human respirovirus 3, Vero, 96 h
Assignment: determine reported EC50 for the given compounds.

Entry CCOC(=O)c1c(C)nc(NCCCCNc2ccnc3cc(Cl)ccc23)nc1-c1ccccc1 : reported EC50 = ? > 100 µM

Given CCOC(=O)c1c(C)nc(NCCCNc2ccnc3cc(Cl)ccc23)nc1-c1ccccc1 , state its recorded EC50. > 20 µM

What value of measured EC50 is listed for CCOC(=O)c1c(C)nc(NCCCCNc2ccnc3cc(Cl)ccc23)nc1C ? > 20 µM

Look up EC50: Cc1nc(NCCCNc2ccnc3cc(Cl)ccc23)nc(-c2cccc([N+](=O)[O-])c2)c1C(=O)OC(C)C > 20 µM

So what's the measured EC50 for this one? CCOC(=O)c1c(C)nc(NCCCNc2ccnc3cc(Cl)ccc23)nc1C > 100 µM

Recorded EC50 for NC(=O)c1ncn([C@@H]2O[C@H](CO)[C@@H](O)[C@H]2O)n1 [RIBAVIRIN] , please? 29 µM

Give its EC50 value. Item: Nc1ncnc2c1ncn2C[C@H](O)CO [(S)-DHPA] > 250 µM

Sample Cc1nc(NCCCCNc2ccnc3cc(Cl)ccc23)nc(-c2ccccc2[N+](=O)[O-])c1C(=O)OC(C)C — what was its EC50? > 20 µM

Could you share which EC50 value was measured for Cc1nc(NCCNc2ccnc3cc(Cl)ccc23)nc(-c2ccccc2[N+](=O)[O-])c1C(=O)OC(C)C ? > 20 µM

// lookup EC50 for CCOC(=O)c1c(C)nc(NCCNc2ccnc3cc(Cl)ccc23)nc1-c1ccccc1 > 4 µM

* * *

Please provide measured MCC for the entries that follow.
# assay details: Cytotoxicity against african green monkey Vero cells assessed as minimum compound concentration required to causes microscopically detectable alteration of normal cell morphology
# Assay type: cell-based
# assay context: chlorocebus sabaeus
// units = µM; emit number, no label

Entry Cc1nc(NCCNc2ccnc3cc(Cl)ccc23)nc(-c2ccccc2[N+](=O)[O-])c1C(=O)OC(C)C has what MCC? 100

Would you mind telling me what MCC value was observed for CCOC(=O)c1c(C)nc(NCCCNc2ccnc3cc(Cl)ccc23)nc1-c1ccccc1 ? 100

// MCC lookup, key: Cc1nc(NCCCNc2ccnc3cc(Cl)ccc23)nc(-c2cccc([N+](=O)[O-])c2)c1C(=O)OC(C)C 100

Entry under review: CCOC(=O)c1c(C)nc(NCCNc2ccnc3cc(Cl)ccc23)nc1-c1ccccc1 . Reported MCC? 20

# get_value(readout='MCC', item= Cc1nc(NCCCCNc2ccnc3cc(Cl)ccc23)nc(-c2ccccc2[N+](=O)[O-])c1C(=O)OC(C)C ) 100

MCC for CCOC(=O)c1c(C)nc(NCCCCNc2ccnc3cc(Cl)ccc23)nc1C ? 100

* * *

Can you tell me pEC50 for the items I'm about to list?
# Tested on: Influenza A virus
# assay details: Antiviral activity against Influenza A virus H3N2 infected in MDCK cells assessed as reduction visual scoring of virus-induced cytopathogenicity after 4 days
# Type: functional, organism-based
# assay context: 96 h
pEC50: −log10 of the molar value.

What pEC50 value was documented for this compound, CCOC(=O)c1c(C)nc(NCCNc2ccnc3cc(Cl)ccc23)nc1-c1ccccc1 ? < 6.80

What value of measured pEC50 is listed for Cc1nc(NCCCCNc2ccnc3cc(Cl)ccc23)nc(-c2ccccc2[N+](=O)[O-])c1C(=O)OC(C)C ? < 6.10

Tell me the measured pEC50 of CCOC(=O)c1c(C)nc(NCCCCNc2ccnc3cc(Cl)ccc23)nc1C , please. < 6.10

Recorded pEC50 for Cc1nc(NCCNc2ccnc3cc(Cl)ccc23)nc(-c2ccccc2[N+](=O)[O-])c1C(=O)OC(C)C , please? < 6.10

Which pEC50 value belongs to CCOC(=O)c1c(C)nc(NCCCNc2ccnc3cc(Cl)ccc23)nc1C ? < 5.40
